# test-system: Glucocorticoid receptor (Homo sapiens, UniProt P04150)
# Sequence (P04150 whole entry): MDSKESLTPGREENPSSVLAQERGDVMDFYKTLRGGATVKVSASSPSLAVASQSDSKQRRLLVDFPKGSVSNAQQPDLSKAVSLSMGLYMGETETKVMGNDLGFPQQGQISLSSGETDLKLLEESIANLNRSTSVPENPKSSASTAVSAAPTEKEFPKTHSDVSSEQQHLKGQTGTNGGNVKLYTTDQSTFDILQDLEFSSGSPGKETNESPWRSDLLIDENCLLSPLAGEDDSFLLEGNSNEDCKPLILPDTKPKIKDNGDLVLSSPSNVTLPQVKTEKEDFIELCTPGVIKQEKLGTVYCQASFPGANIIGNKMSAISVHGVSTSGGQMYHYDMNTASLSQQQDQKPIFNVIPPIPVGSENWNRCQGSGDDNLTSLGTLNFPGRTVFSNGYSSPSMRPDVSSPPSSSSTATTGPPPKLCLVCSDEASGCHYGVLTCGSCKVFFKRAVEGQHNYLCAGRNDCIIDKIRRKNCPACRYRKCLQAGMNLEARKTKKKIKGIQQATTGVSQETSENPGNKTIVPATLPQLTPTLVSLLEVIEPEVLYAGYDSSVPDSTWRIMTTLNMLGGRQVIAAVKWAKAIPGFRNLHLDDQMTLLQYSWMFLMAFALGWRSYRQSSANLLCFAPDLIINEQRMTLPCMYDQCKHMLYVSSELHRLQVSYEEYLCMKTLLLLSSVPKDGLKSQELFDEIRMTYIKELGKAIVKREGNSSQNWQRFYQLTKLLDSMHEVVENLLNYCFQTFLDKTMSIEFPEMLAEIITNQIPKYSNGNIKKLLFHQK
# method-summary: Agonist activity at human GR expressed in CV1 cells by GRE activation assay
# Assay type: functional, cell-based, CV-1

structure-smiles-string | EC50 (nM)
COc1c(O)ccc2c1-c1ccc3c(c1/C(=C/c1sccc1COCCO)O2)C(C)=CC(C)(C)N3 | 1.6
COCc1ccsc1/C=C1\Oc2ccc(O)c(OC)c2-c2ccc3c(c21)C(C)=CC(C)(C)N3 | 0.2
COc1c(O)ccc2c1-c1ccc3c(c1/C(=C/c1sccc1C(=O)N1CCCCC1)O2)C(C)=CC(C)(C)N3 | 0.3
COc1c(O)ccc2c1-c1ccc3c(c1/C(=C/c1sccc1CNCC(F)(F)F)O2)C(C)=CC(C)(C)N3 | 0.5

* * *

The following compounds are listed with their measured EC50 values.
# test-system: Glucocorticoid receptor (Homo sapiens)
# method-summary: Agonist activity at human GR expressed in CV1 cells by GRE activation assay
# Assay type: functional, cell-based, CV-1
measurement-label: EC50

structure-smiles-string | measurement-label | reported-value
CC/C=C(\C)c1ccsc1/C=C1\Oc2ccc(O)c(OC)c2-c2ccc3c(c21)C(C)=CC(C)(C)N3 | EC50 | 0.5 nM
COc1c(O)ccc2c1-c1ccc3c(c1/C(=C/c1sccc1C(C)=O)O2)C(C)=CC(C)(C)N3 | EC50 | 0.6 nM
COC(=O)c1ccsc1/C=C1\Oc2ccc(O)c(OC)c2-c2ccc3c(c21)C(C)=CC(C)(C)N3 | EC50 | 1.4 nM
COc1c(O)ccc2c1-c1ccc3c(c1/C(=C/c1sccc1CO)O2)C(C)=CC(C)(C)N3 | EC50 | 0.2 nM
CO/N=C(\C)c1ccsc1/C=C1\Oc2ccc(O)c(OC)c2-c2ccc3c(c21)C(C)=CC(C)(C)N3 | EC50 | 0.1 nM
COc1c(O)ccc2c1-c1ccc3c(c1/C(=C/c1sccc1C#N)O2)C(C)=CC(C)(C)N3 | EC50 | 0.2 nM
COc1c(O)ccc2c1-c1ccc3c(c1/C(=C/c1sccc1/C(C)=N/O)O2)C(C)=CC(C)(C)N3 | EC50 | 5 nM
CCO/N=C(\C)c1ccsc1/C=C1\Oc2ccc(O)c(OC)c2-c2ccc3c(c21)C(C)=CC(C)(C)N3 | EC50 | 0.4 nM

* * *

Parameter: EC50. Scope: all listed entries.
# test-system: Glucocorticoid receptor (Homo sapiens)
# method-summary: Antagonist activity at human GR expressed in CV1 cells by GRE activation assay
# Format: functional, cell-based, CV-1
measurement-label: EC50 (nM)

molecule | measurement-label | unit-of-measurement | reported-value
COc1c(O)ccc2c1-c1ccc3c(c1/C(=C/c1sccc1C(O)C(F)(F)F)O2)C(C)=CC(C)(C)N3 (single isomer, unassigned; (+)) | EC50 | nM | 0.2
COc1c(O)ccc2c1-c1ccc3c(c1/C(=C/c1sccc1C(=O)C1CCCCC1)O2)C(C)=CC(C)(C)N3 | EC50 | nM | 0.4
COc1c(O)ccc2c1-c1ccc3c(c1/C(=C/c1sccc1C(O)C(F)(F)F)O2)C(C)=CC(C)(C)N3 (stereo in doubt; (-)-15) | EC50 | nM | 1.4

* * *

# test-system: Glucocorticoid receptor (Homo sapiens, UniProt P04150)
# method-summary: Antagonist activity at human GR expressed in CV1 cells by GRE activation assay
# Assay type: functional, cell-based, CV-1
pEC50: −log10 of the molar value.
measurement-label: pEC50

compound | reported-value
COc1c(O)ccc2c1-c1ccc3c(c1/C(=C/c1sccc1C(O)C(F)(F)F)O2)C(C)=CC(C)(C)N3 (racemic) | 9.52
CCO/N=C(\C)c1ccsc1/C=C1\Oc2ccc(O)c(OC)c2-c2ccc3c(c21)C(C)=CC(C)(C)N3 | 8.72
COc1c(O)ccc2c1-c1ccc3c(c1/C(=C/c1sccc1C(C)O)O2)C(C)=CC(C)(C)N3 (racemic) | 8.89
CCCCC(O)c1ccsc1/C=C1\Oc2ccc(O)c(OC)c2-c2ccc3c(c21)C(C)=CC(C)(C)N3 (racemic) | 9.22

* * *

# test-system: Glucocorticoid receptor (Homo sapiens, UniProt P04150)
# method-summary: Activity at human GR expressed in NHDFneo cells assessed as inhibition of IL-6 production
measurement-label: log10 of IC50 (log10 of the value in nM)

structure-smiles-string | log10 of IC50
COc1c(O)ccc2c1-c1ccc3c(c1/C(=C/c1sccc1COCCO)O2)C(C)=CC(C)(C)N3 | 0.00
COC(=O)c1ccsc1/C=C1\Oc2ccc(O)c(OC)c2-c2ccc3c(c21)C(C)=CC(C)(C)N3 | 0.26
COCc1ccsc1/C=C1\Oc2ccc(O)c(OC)c2-c2ccc3c(c21)C(C)=CC(C)(C)N3 | -0.70
COc1c(O)ccc2c1-c1ccc3c(c1/C(=C/c1sccc1C(=O)N1CCCCC1)O2)C(C)=CC(C)(C)N3 | 0.00
CC/C=C(\C)c1ccsc1/C=C1\Oc2ccc(O)c(OC)c2-c2ccc3c(c21)C(C)=CC(C)(C)N3 | 0.79
COc1c(O)ccc2c1-c1ccc3c(c1/C(=C/c1sccc1CO)O2)C(C)=CC(C)(C)N3 | -0.70
COc1c(O)ccc2c1-c1ccc3c(c1/C(=C/c1sccc1CNCC(F)(F)F)O2)C(C)=CC(C)(C)N3 | -0.05
COc1c(O)ccc2c1-c1ccc3c(c1/C(=C/c1sccc1/C(C)=N/O)O2)C(C)=CC(C)(C)N3 | 0.04

* * *

# test-system: Glucocorticoid receptor (Homo sapiens)
# method-summary: Activity at human GR expressed in NHDFneo cells assessed as inhibition of IL-6 production
pIC50: −log10 of the molar value.
Recorded pIC50, one value per entry.

structure-smiles-string | pIC50
COc1c(O)ccc2c1-c1ccc3c(c1/C(=C/c1sccc1C(C)=O)O2)C(C)=CC(C)(C)N3 | 9.52
CO/N=C(\C)c1ccsc1/C=C1\Oc2ccc(O)c(OC)c2-c2ccc3c(c21)C(C)=CC(C)(C)N3 | 9.70
CCO/N=C(\C)c1ccsc1/C=C1\Oc2ccc(O)c(OC)c2-c2ccc3c(c21)C(C)=CC(C)(C)N3 | 9.30
COc1c(O)ccc2c1-c1ccc3c(c1/C(=C/c1sccc1C#N)O2)C(C)=CC(C)(C)N3 | 9.10

* * *

# System: RPMI-8226
# method-summary: Antiproliferative activity against human RPMI8226 cells after 4 days
# Type: functional, cell-based
# recorded-conditions: RPMI-8226, 96 h
Quick reference for IC50 among some compounds
measurement-label: IC50 (nM)

structure-smiles-string | measurement-label | reported-value
COc1c(O)ccc2c1-c1ccc3c(c1/C(=C/c1sccc1C(C)=O)O2)C(C)=CC(C)(C)N3 | IC50 | 16
CC/C=C(\C)c1ccsc1/C=C1\Oc2ccc(O)c(OC)c2-c2ccc3c(c21)C(C)=CC(C)(C)N3 | IC50 | 22
CCO/N=C(\C)c1ccsc1/C=C1\Oc2ccc(O)c(OC)c2-c2ccc3c(c21)C(C)=CC(C)(C)N3 | IC50 | 16
CO/N=C(\C)c1ccsc1/C=C1\Oc2ccc(O)c(OC)c2-c2ccc3c(c21)C(C)=CC(C)(C)N3 | IC50 | 9.5
C[C@@H]1C[C@H]2[C@@H]3CCC4=CC(=O)C=C[C@]4(C)[C@@]3(F)[C@@H](O)C[C@]2(C)[C@@]1(O)C(=O)CO | IC50 | 6.5
